Every entry's value here was drawn from patent US20260201008A1.

- tgt: human GLP-1 receptor (hGLP1R) (human, UniProt P43220 24-463)
- test method notes: cell-based or functional assay
Numbered stars: 1 amine (or outer) side, 2 acyl side, 3 side chain; on linkers, the order of the positions; unused ones are H or OH. Square brackets hold non-standard residues; d marks the D form. Side chains are listed from the residue outwards. Ends that are not written are not given here. * marks the point of attachment. C20 diacid = O=C(O)CCCCCCCCCCCCCCCCCCC(=O)*; γGlu = O=C(O)[C@H](CCC(=O)[*:2])N[*:1]; AEEA = NCCOCCOCC(=O)O; Aib = CC(C)(N)C(=O)O
Give measured pEC50 hGLPR1 for each item. Keep answers brief.

The recorded pEC50 hGLPR1 for entry H[Aib]EGTFTSDVSTLK([AEEA-AEEA-γGlu-C20 diacid])EFAAQQRFLEHLV-NH2 (also: K14 lipid also given as C18DA[γE][OEG][OEG]-) [SEQ ID NO: 100] equals 9.9 -log M

The recorded pEC50 hGLPR1 for entry H[Aib]EGTFTSDVSELKEEAAQQRFLEHLV-NH2 (not fully specified (residue 14); also: K14 lipidated with C20DA[γE][OEG][OEG]- or C18DA[γE][OEG][OEG]-) [SEQ ID NO: 14] equals 10.7 -log M

The recorded pEC50 hGLPR1 for entry H[Aib]EGTFTSDVSRLK([AEEA-AEEA-γGlu-C20 diacid])E[Aib]AAAQRFLEHLV-NH2 [SEQ ID NO: 81] equals 10.1 -log M

The recorded pEC50 hGLPR1 for entry H[Aib]EGTFTSDVSFLK([AEEA-AEEA-γGlu-C20 diacid])EFAASQRFLEHLV-NH2 [SEQ ID NO: 91] equals 9.5 -log M

The recorded pEC50 hGLPR1 for entry H[Aib]EGTFTSDVSRLK([AEEA-AEEA-γGlu-C20 diacid])E[Aib]AATQRFLEHLV-NH2 [SEQ ID NO: 50] equals 10.8 -log M
